Overview of recorded Percent Effect for various compounds
Subject of test: AMP-activated protein kinase, AMPK (Homo sapiens) (UniProt P54646+O43741+P54619+Q9UGJ0+Q9Y478+Q13131+Q9UGI9)
Assay details: AMP-dependent Kinase enzyme assay. An in vitro enzyme assay that detects ADP turnover that is directly proportional to AMPK activity. This uses naive AMPK that is activated during the assay with MK-8722
Assay type: functional
Design: scale not given: direction of the effect not stated beside the values
Condition context: 30 µM
Parameter measured: Percent Effect

compound="Cc1nc2n(n1)CC(NCc1c(Cl)ccc3cccnc13)CC2 (stereo not drawn)" reported_measurement=11.7%
compound="CC(C(=O)NC1(C#N)CCCCC1)N1CCc2c(ncn2C)C1 (stereo not drawn)" reported_measurement=-9.22%
compound=COC(=O)c1ccc(N(C(=O)c2ccncc2)C(C)C)c(C)c1 reported_measurement=-1.62%

The values you see were collected from ChEMBL document CHEMBL3988442.
